System: 699152-130-R-J1-PDC complex spheroid viability;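 note: spheroids exposed to agents for 7 days before viability reading; percent of DMSO vehicle control viability so 100% = vehicle and 0% = no viable signal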
ASSAY_TEXT: Anticancer human tumor 699152-130-R-J1-PDC patient-derived pancreatic carcinoma cell line growth inhibition [POLQ]
EXPERIMENTAL_PARAMETERS: second compound 0.1 µM; first compound 1 µM; active compounds read low
MEASURED_METRIC: viability, T/C (%)
Provide the reading as a plain figure in %.

Give the measured viability, T/C of CC1COCCN1c1cc(C2(O)CC3CCC(C2)O3)c2cnn(-c3ccn[nH]3)c2n1 (centres undefined) + Cc1cccc(N(C)C(=O)C2C(O)CCN2c2nc(C)cc(C(F)(F)F)c2C#N)c1 .
52.2

Give the measured viability, T/C of COc1cc2cc(C(=O)CCC(=O)O)sc2cc1OC + Nc1ccc(C#CCN(C(=O)Cc2ncc(C(F)(F)F)cc2C(F)(F)F)c2ccc(F)cc2)nn1 .
110

Give the measured viability, T/C of COc1ccc([C@@H](O)c2cc(-c3ncnc4cc(N5CCOCC5)ccc34)c(F)cc2Cl)nn1 + Cc1cccc(N(C)C(=O)C2C(O)CCN2c2nc(C)cc(C(F)(F)F)c2C#N)c1 .
85.3

Give the measured viability, T/C of CC1COCCN1c1cc(-c2ccnn2C)c2ccnc(-c3ccn[nH]3)c2n1 (centres undefined) + Nc1ccc(C#CCN(C(=O)Cc2ncc(C(F)(F)F)cc2C(F)(F)F)c2ccc(F)cc2)nn1 .
66.6

Give the measured viability, T/C of CC1COCCN1c1cc(C2(S(C)(=N)=O)CC2)nc(-c2ccnc3[nH]ccc23)n1 (centres undefined) + Cc1cccc(N(C)C(=O)C2C(O)CCN2c2nc(C)cc(C(F)(F)F)c2C#N)c1 .
92.8

Give the measured viability, T/C of COc1cccc(OCCCN)c1-c1cc(Nc2cnc(C#N)cn2)n[nH]1 + Cc1cccc(N(C)C(=O)C2C(O)CCN2c2nc(C)cc(C(F)(F)F)c2C#N)c1 .
49.1

Give the measured viability, T/C of CC1COCCN1c1cc(C2(O)CC3CCC(C2)O3)c2cnn(-c3ccn[nH]3)c2n1 (centres undefined) + COC1C(OC(N)=O)C(O)C(Oc2ccc3c(O)c(NC(=O)c4ccc(O)c(CC=C(C)C)c4)c(=O)oc3c2C)OC1(C)C .
46.8

Give the measured viability, T/C of CC(C)n1c(=O)n(C)c2cnc3cc(F)c(-c4ccc(OCCCN5CCCCC5)nc4)cc3c21 + Cc1cccc(N(C)C(=O)C2C(O)CCN2c2nc(C)cc(C(F)(F)F)c2C#N)c1 .
109

Give the measured viability, T/C of O=C(Nc1ccc(O)c(NS(=O)(=O)c2ccc(F)cc2)c1)c1ccc(-c2ccccc2)cc1 + COC1C(OC(N)=O)C(O)C(Oc2ccc3c(O)c(NC(=O)c4ccc(O)c(CC=C(C)C)c4)c(=O)oc3c2C)OC1(C)C .
101
